Provenance of the data: ChEMBL document CHEMBL2390842

test-protocol: Half life in dog at 2 mg/kg, po
Format: ADME, organism-based, Canis lupus familiaris
Design: dose 2 mg/kg, route oral
experimental-context: in vivo
value-type: half-life (h)
Number in h, nothing else.

**Query** // query half-life value for entry `CS(=O)(=O)C1CCN(c2cccc3c2ccn3-c2ccnc(N[C@H]3CC[C@H](O)CC3)n2)CC1`
**Result** 3.4
